Hello, the source for this data is ChEMBL document CHEMBL1201862, in case you need it.

System: A549
Assay: NCI tumour cell line growth inhibition, 48 h
Activity calls are given as the source filed them. Cut-off read from the data, not from the text of the source: active = GI50 up to about 1.1 µM and inactive = higher.
Your answer must be one of the following: active, inactive

Incoming: Hi team, can someone confirm the assay call for CC(=O)NCCC1CN(C(=O)/C=C\I)c2ccccc21 (centres undefined) ?
Outgoing: inactive

Incoming: What was the test verdict on Nc1ncnc2c1ncn2[C@@H]1O[C@H](COP(=O)(O)OP(=O)(O)OC[C@H]2O[C@@H](OCCCO)[C@H](O)[C@@H]2O)[C@@H](O)[C@H]1O ?
Outgoing: inactive

Incoming: What was the test verdict on COc1ccc(N2C(=O)C3c4[nH]c5ccccc5c4C4CCC(c5ccccc5)CC4C3C2=O)cc1 (centres undefined) ?
Outgoing: inactive

Incoming: State the result this test recorded for Cc1cc(C)c2ccc(N3CCNCC3)nc2n1 .
Outgoing: inactive

Incoming: Each molecule tested received a call. Report the one for COc1cccc(C2CC(=O)c3cccn32)c1 (centres undefined) .
Outgoing: inactive

Incoming: Check the results log: what was the call for CCC(O)CC1OC2(CCC1C)CC1OC(=O)/C=C\C(C)(O)C(O)C(C)C(O)C(OC3CC(OC)C(O)C(C)O3)C(O)C(C)(O)CCC/C=C/C3CC(C)COC3(O)CC(O2)C1C (centres undefined) ?
Outgoing: active

Incoming: Which outcome was assigned to CC1(C)OC2C(CO)OC(n3cnc(N)nc3=O)C2O1 (centres undefined) in this test?
Outgoing: inactive

Incoming: Dear all, I need the recorded test outcome for COc1ccc(C2Oc3ccc(Cl)cc3C=C2[N+](=O)[O-])cc1 (centres undefined) , thank you.
Outgoing: inactive

Incoming: How was CCOC(=O)C12CCCC1(O)N(NC(=O)OC)C(C)=C2C(=O)OC (centres undefined) classified in this test?
Outgoing: inactive

###

Test system: RPMI-8226
Experiment: NCI tumour cell line growth inhibition, 48 h
Calls of active or inactive are those of the source. Cut-off read from the data, not from the text of the source: active = GI50 up to about 1.1 µM and inactive = higher.
property: GI50

Noted GI50 for CCCCCCCCCCCCCCCCCCNC(=O)OCC(CNS(=O)(=O)CCC[n+]1cccc2ccccc21)COC (stereo unspecified) , tested on RPMI-8226: 1.37 µM (inactive)

Short answer on RPMI-8226 for COC(=O)NC(=O)c1cn(CCCOC(=O)CCCCCCCCC(=O)OCCCn2cc(C(=O)NC(=O)OC)c(=O)[nH]c2=O)c(=O)[nH]c1=O , GI50: > 100 µM (inactive)

Reported GI50 (RPMI-8226) for entry O=C(CCN(CCO)CCO)Nc1ccc2c(c1)C(=O)c1ccc(NC(=O)CCN(CCO)CCO)cc1C2=O is 14.6 µM (inactive)

// compound O=C1OC(C2Cc3ccccc3C2=O)c2ccccc21 (stereo unspecified) , assay RPMI-8226, GI50 value: > 100 µM (inactive)

Lab entry: RPMI-8226 assay, compound COc1cccc(C2c3cc4c(cc3OC(Nc3ccccc3)C2C)OCO4)c1OC (stereo unspecified) , GI50 = 1.64 µM (inactive)

Lab entry: RPMI-8226 assay, compound O=C1c2ccccc2-c2nc3ccncc3n21 , GI50 = > 100 µM (inactive)

Item O=C(/C=C/c1cccc([N+](=O)[O-])c1)c1cccnc1 ; assay system RPMI-8226; GI50 reported as 19.4 µM (inactive)

Item COc1nc2ccc(CNc3ccc(C(=O)NC(CCC(=O)O)C(=O)O)cc3)cc2nc1OC (stereo unspecified) ; assay system RPMI-8226; GI50 reported as > 100 µM (inactive)

Kindly note: RPMI-8226, NC(Cc1c[nH]c2cc([N+](=O)[O-])ccc12)C(=O)O (stereo unspecified) , GI50 value reported: > 100 µM (inactive)

The compound CC1=NN(c2ccccc2)C(=O)C1/N=N/c1ccc([As](=O)(O)O)c(O)c1 (stereo unspecified) , when measured on RPMI-8226, yielded GI50 of 57 µM (inactive)

Lab note: compound c1ccc2cc3n[se]nc3cc2c1 tested on RPMI-8226; recorded GI50 was > 100 µM (inactive)

So the reported GI50 for NP(=O)(Oc1c2occc2cc2ccc(=O)oc12)N(CCCl)CCCl (stereo unspecified) , on RPMI-8226, turned out to be 89.7 µM (inactive)

Here C[C@@H](NC(=O)OC1C=CC2(CC1)C(=O)N(C)c1ccccc12)c1cccc2ccccc12 (stereo partly specified) was tested on RPMI-8226, and its GI50 came to 8.79 µM (inactive)

Entry CN/N=C(\C)CC(=O)Nc1cccc(Cl)c1C under RPMI-8226 had GI50 of > 100 µM (inactive)

Tested system RPMI-8226; GI50 recorded for O=c1/c(=C/c2ccccn2)sc2nc3cc4c(cc3n12)OCCO4 was > 100 µM (inactive)

// GI50 (RPMI-8226) for O=[N+]([O-])C(=C/c1ccccc1)/C(=C\c1ccccc1)[N+](=O)[O-] = 10.3 µM (inactive)

Sample CCOC(=O)CCn1cnc(N)n1 , system: RPMI-8226. Its GI50 is > 100 µM (inactive)

The observed GI50 for Cc1ccc(/N=N\c2c(O)c(S(=O)(=O)O)cc3cc(S(=O)(=O)O)ccc23)c(C)c1 when tested with RPMI-8226 stands at > 100 µM (inactive)

So the reported GI50 for Nc1ccc2c(c1)C1Oc3ccccc3CC1CO2 (stereo unspecified) , on RPMI-8226, turned out to be > 100 µM (inactive)

// assay RPMI-8226, entry CC(C)C1COC(c2ccc3ccccc3c2-c2c(O[Si](C)(C)C(C)(C)C)ccc3ccccc23)=N1 (stereo unspecified) , GI50 value = 14.7 µM (inactive)

Observed GI50, RPMI-8226, COC(=O)C(=O)CC(=O)CCn1ncc(Cl)c(Cl)c1=O : 12.8 µM (inactive)
